Values were extracted from the NIST ThermoML archive (doi:10.1021/je200050q).

Experiment: activity coefficient (dimensionless); of the first substance listed, at infinite dilution; xn = mol fraction of the nth substance listed
Conditions: 323.15 K; 101 kPa; Liquid; Chromatography; x1 = 0
Note to self: activity coefficient under 4 means rule met, ties and anything higher get rule not met.

Ask: Is activity coefficient strictly under 4 for the entry ClC(Cl)Cl [trichloromethane] + CCCCn1cc[n+](C)c1.O=[N+]([O-])[O-] ?
Reply: rule met

Ask: Same question for CCCCCCCCC [nonane] + CCCCn1cc[n+](C)c1.O=[N+]([O-])[O-] please.
Reply: rule not met

Ask: Same question for ClC(Cl)(Cl)Cl [tetrachloromethane] + CCCCn1cc[n+](C)c1.O=[N+]([O-])[O-] please.
Reply: rule met

Ask: Same question for C1CCCCC1 [cyclohexane] + CCCCn1cc[n+](C)c1.O=[N+]([O-])[O-] please.
Reply: rule not met

Ask: Same question for Cc1ccccc1C [1,2-dimethylbenzene] + CCCCn1cc[n+](C)c1.O=[N+]([O-])[O-] please.
Reply: rule not met

Ask: Same question for CO [methanol] + CCCCn1cc[n+](C)c1.O=[N+]([O-])[O-] please.
Reply: rule met

Ask: Same question for CCCCCCCC [octane] + CCCCn1cc[n+](C)c1.O=[N+]([O-])[O-] please.
Reply: rule not met

Ask: Same question for Cc1ccccc1 [toluene] + CCCCn1cc[n+](C)c1.O=[N+]([O-])[O-] please.
Reply: rule met

Ask: Same question for CCO [ethanol] + CCCCn1cc[n+](C)c1.O=[N+]([O-])[O-] please.
Reply: rule met

###

Assay: activity coefficient (dimensionless); of the first substance listed, at infinite dilution; xn = mol fraction of the nth substance listed
Conditions: 363.15 K; 101 kPa; Liquid; Chromatography; x1 = 0
Label condition not met if activity coefficient falls below 2; label condition met in every other case.

Ask: Does activity coefficient meet or surpass 2 for CO [methanol] + CCCCn1cc[n+](C)c1.O=[N+]([O-])[O-] ?
Reply: condition not met

Ask: Same question for ClC(Cl)(Cl)Cl [tetrachloromethane] + CCCCn1cc[n+](C)c1.O=[N+]([O-])[O-] please.
Reply: condition met

Ask: Same question for Cc1ccccc1 [toluene] + CCCCn1cc[n+](C)c1.O=[N+]([O-])[O-] please.
Reply: condition met

Ask: Same question for CCCCCC [hexane] + CCCCn1cc[n+](C)c1.O=[N+]([O-])[O-] please.
Reply: condition met

Ask: Same question for CCCO [propan-1-ol] + CCCCn1cc[n+](C)c1.O=[N+]([O-])[O-] please.
Reply: condition not met

Ask: Same question for CCCCCCC [heptane] + CCCCn1cc[n+](C)c1.O=[N+]([O-])[O-] please.
Reply: condition met

Ask: Same question for CCCCCCCCC [nonane] + CCCCn1cc[n+](C)c1.O=[N+]([O-])[O-] please.
Reply: condition met

Ask: Same question for Cc1cccc(C)c1 [1,3-dimethylbenzene] + CCCCn1cc[n+](C)c1.O=[N+]([O-])[O-] please.
Reply: condition met

Ask: Same question for Cc1ccc(C)cc1 [1,4-dimethylbenzene] + CCCCn1cc[n+](C)c1.O=[N+]([O-])[O-] please.
Reply: condition met

Ask: Same question for C1CCCCC1 [cyclohexane] + CCCCn1cc[n+](C)c1.O=[N+]([O-])[O-] please.
Reply: condition met

Ask: Same question for ClCCl [dichloromethane] + CCCCn1cc[n+](C)c1.O=[N+]([O-])[O-] please.
Reply: condition not met

Ask: Same question for CCCCCCCC [octane] + CCCCn1cc[n+](C)c1.O=[N+]([O-])[O-] please.
Reply: condition met

Ask: Same question for CCOC(C)=O [ethyl acetate] + CCCCn1cc[n+](C)c1.O=[N+]([O-])[O-] please.
Reply: condition met

Ask: Same question for Cc1ccccc1C [1,2-dimethylbenzene] + CCCCn1cc[n+](C)c1.O=[N+]([O-])[O-] please.
Reply: condition met

Ask: Same question for CC#N [acetonitrile] + CCCCn1cc[n+](C)c1.O=[N+]([O-])[O-] please.
Reply: condition not met

Ask: Same question for CCc1ccccc1 [ethylbenzene] + CCCCn1cc[n+](C)c1.O=[N+]([O-])[O-] please.
Reply: condition met

Ask: Same question for CC(C)=O [acetone] + CCCCn1cc[n+](C)c1.O=[N+]([O-])[O-] please.
Reply: condition not met

###

Assay: activity coefficient (dimensionless); of the first substance listed, at infinite dilution; xn = mol fraction of the nth substance listed
Details: 313.15 K; 101 kPa; Liquid; Chromatography; x1 = 0
REPORTED_ENDPOINT: activity coefficient
Quick one: just the number, no unit, thanks!

Ask: What measured activity coefficient goes with CC#N [acetonitrile] + CCCCn1cc[n+](C)c1.O=[N+]([O-])[O-] ?
Reply: 0.605

Ask: Same question for CCO [ethanol] + CCCCn1cc[n+](C)c1.O=[N+]([O-])[O-] please.
Reply: 0.543

Ask: Same question for CCCCCCC [heptane] + CCCCn1cc[n+](C)c1.O=[N+]([O-])[O-] please.
Reply: 97.1

###

Test: activity coefficient (dimensionless); of the first substance listed, at infinite dilution; xn = mol fraction of the nth substance listed
Conditions: 323.15 K; 101 kPa; Liquid; Chromatography; x1 = 0
Could you please report measured activity coefficient for the items listed next?
Quick one: just the number, no unit, thanks!

Ask: What measured activity coefficient goes with CC(C)=O [acetone] + CCCCn1cc[n+](C)c1.O=[N+]([O-])[O-] ?
Reply: 1.13

Ask: Same question for ClCCl [dichloromethane] + CCCCn1cc[n+](C)c1.O=[N+]([O-])[O-] please.
Reply: 0.526

Ask: Same question for CCCCCC [hexane] + CCCCn1cc[n+](C)c1.O=[N+]([O-])[O-] please.
Reply: 53.1

Ask: Same question for CCCCCCC [heptane] + CCCCn1cc[n+](C)c1.O=[N+]([O-])[O-] please.
Reply: 89.9

Ask: Same question for CCOC(C)=O [ethyl acetate] + CCCCn1cc[n+](C)c1.O=[N+]([O-])[O-] please.
Reply: 3.01

###

Experiment: activity coefficient (dimensionless); of the first substance listed, at infinite dilution; xn = mol fraction of the nth substance listed
Conditions: 343.15 K; 101 kPa; Liquid; Chromatography; x1 = 0
REPORTED_ENDPOINT: activity coefficient
Quick one: just the number, no unit, thanks!

Ask: What measured activity coefficient goes with CO [methanol] + CCCCn1cc[n+](C)c1.O=[N+]([O-])[O-] ?
Reply: 0.307

Ask: Same question for CCCO [propan-1-ol] + CCCCn1cc[n+](C)c1.O=[N+]([O-])[O-] please.
Reply: 0.674

Ask: Same question for CCc1ccccc1 [ethylbenzene] + CCCCn1cc[n+](C)c1.O=[N+]([O-])[O-] please.
Reply: 5.6

###

Test: activity coefficient (dimensionless); of the first substance listed, at infinite dilution; xn = mol fraction of the nth substance listed
Details: 353.15 K; 101 kPa; Liquid; Chromatography; x1 = 0
Note to self: activity coefficient under 0.6 means fulfilled, ties and anything higher get not fulfilled.

Ask: Is activity coefficient strictly under 0.6 for the entry CC#N [acetonitrile] + CCCCn1cc[n+](C)c1.O=[N+]([O-])[O-] ?
Reply: not fulfilled

Ask: Same question for Cc1ccccc1 [toluene] + CCCCn1cc[n+](C)c1.O=[N+]([O-])[O-] please.
Reply: not fulfilled

Ask: Same question for ClC(Cl)Cl [trichloromethane] + CCCCn1cc[n+](C)c1.O=[N+]([O-])[O-] please.
Reply: fulfilled

Ask: Same question for CCO [ethanol] + CCCCn1cc[n+](C)c1.O=[N+]([O-])[O-] please.
Reply: fulfilled

Ask: Same question for CCCCCCCCC [nonane] + CCCCn1cc[n+](C)c1.O=[N+]([O-])[O-] please.
Reply: not fulfilled

Ask: Same question for C1CCCCC1 [cyclohexane] + CCCCn1cc[n+](C)c1.O=[N+]([O-])[O-] please.
Reply: not fulfilled

###

Could you please report measured activity coefficient for the items listed next?
Assay: activity coefficient (dimensionless); of the first substance listed, at infinite dilution; xn = mol fraction of the nth substance listed
Details: 333.15 K; 101 kPa; Liquid; Chromatography; x1 = 0
Quick one: just the number, no unit, thanks!

Ask: What measured activity coefficient goes with CCCCCCCC [octane] + CCCCn1cc[n+](C)c1.O=[N+]([O-])[O-] ?
Reply: 131

Ask: Same question for Cc1ccccc1 [toluene] + CCCCn1cc[n+](C)c1.O=[N+]([O-])[O-] please.
Reply: 3.24

Ask: Same question for CC(C)=O [acetone] + CCCCn1cc[n+](C)c1.O=[N+]([O-])[O-] please.
Reply: 1.16

Ask: Same question for ClC(Cl)Cl [trichloromethane] + CCCCn1cc[n+](C)c1.O=[N+]([O-])[O-] please.
Reply: 0.39

Ask: Same question for C1CCCCC1 [cyclohexane] + CCCCn1cc[n+](C)c1.O=[N+]([O-])[O-] please.
Reply: 23.9

Ask: Same question for CCCCCC [hexane] + CCCCn1cc[n+](C)c1.O=[N+]([O-])[O-] please.
Reply: 48.8

Ask: Same question for ClCCl [dichloromethane] + CCCCn1cc[n+](C)c1.O=[N+]([O-])[O-] please.
Reply: 0.552

Ask: Same question for CCCCCCC [heptane] + CCCCn1cc[n+](C)c1.O=[N+]([O-])[O-] please.
Reply: 83.6

Ask: Same question for CC1CCCCC1 [methylcyclohexane] + CCCCn1cc[n+](C)c1.O=[N+]([O-])[O-] please.
Reply: 37
